Data origin: patent US11530206B2

Some molecules, each annotated with its measured pIC50.
# Test system: ULK kinase
# Method Notes: pATG13 levels of mutant KRas A549 cells after treatment with ULK inhibitors in combination with trametinib (ELISA)
# Assay type: cell-based, human
# Applied Conditions: A549 (KRAS mutant) lung cancer cells, 250 nM trametinib, overnight, pS318-ATG13
pIC50: −log10 of the molar value.

[
  {
    "Smiles Data": "CN1CCN(c2ccc(Nc3ncc(C(F)(F)F)c(NCCCN4CCC(C)(C)OC4=O)n3)c(C3CC3)c2)CC1",
    "Assay Target": "ULK kinase",
    "pIC50": "7.00 to 8.00"
  },
  {
    "Smiles Data": "CCc1cc(N2C[C@H]3C[C@@H]2CN3C)ccc1Nc1ncc(C(F)(F)F)c(NCCCN2CCOCCC2=O)n1",
    "Assay Target": "ULK kinase",
    "pIC50": "7.00 to 8.00"
  },
  {
    "Smiles Data": "CCc1cc(N2CCN3CCC[C@@H]3C2)ccc1Nc1ncc(C(F)(F)F)c(NCCCN2CCOCCC2=O)n1",
    "Assay Target": "ULK kinase",
    "pIC50": "7.00 to 8.00"
  },
  {
    "Smiles Data": "CCN1CCN(c2ccc(Nc3ncc(Br)c(NCCCN4CCCCC4=O)n3)c(C(C)C)c2)CC1",
    "Assay Target": "ULK kinase",
    "pIC50": "6.22 to 6.52"
  },
  {
    "Smiles Data": "CC(C)c1cc(N2CCN(C)CC2)ccc1Nc1ncc(Br)c(NCCCN2CCOCCC2=O)n1",
    "Assay Target": "ULK kinase",
    "pIC50": "6.22 to 6.52"
  },
  {
    "Smiles Data": "CCc1cc(N2CCN(C)CC2)ccc1Nc1ncc(Br)c(NCCCN2CCCCC2=O)n1",
    "Assay Target": "ULK kinase",
    "pIC50": "7.00 to 8.00"
  },
  {
    "Smiles Data": "CCc1cc(N2CCN(C)CC2)ccc1Nc1ncc(Br)c(NCCCN2CCOCCC2=O)n1",
    "Assay Target": "ULK kinase",
    "pIC50": "7.00 to 8.00"
  },
  {
    "Smiles Data": "O=C1OCCCN1CCCNc1nc(Nc2ccc(N3CCN4CCC[C@@H]4C3)cc2C2CC2)ncc1C(F)(F)F",
    "Assay Target": "ULK kinase",
    "pIC50": "7.00 to 8.00"
  },
  {
    "Smiles Data": "O=C1COCCCN1CCCNc1nc(Nc2ccc(N3CCNCC3)cc2C2CC2)ncc1C(F)(F)F",
    "Assay Target": "ULK kinase",
    "pIC50": "6.52 to 7.00"
  },
  {
    "Smiles Data": "CCN1CCN(c2ccc(Nc3ncc(C(F)(F)F)c(NCCCN4CCCCC4=O)n3)c(C)c2)CC1",
    "Assay Target": "ULK kinase",
    "pIC50": "6.52 to 7.00"
  },
  {
    "Smiles Data": "O=C1CCCCN1CCCNc1nc(Nc2ccc(N3CCNCC3)cc2C2CC2)ncc1C(F)(F)F",
    "Assay Target": "ULK kinase",
    "pIC50": "7.00 to 8.00"
  },
  {
    "Smiles Data": "CCc1cc(N2CC3CCC(C2)N3C)ccc1Nc1ncc(C(F)(F)F)c(NCCCN2CCCOC2=O)n1",
    "Assay Target": "ULK kinase",
    "pIC50": "7.00 to 8.00"
  },
  {
    "Smiles Data": "CCc1cc(N2CCN(C)CC2)ccc1Nc1ncc(Br)c(NCCCN2CCCOCC2=O)n1",
    "Assay Target": "ULK kinase",
    "pIC50": "6.52 to 7.00"
  },
  {
    "Smiles Data": "CCc1cc(N2CCN(C)CC2)ccc1Nc1ncc(C(F)(F)F)c(NCCCN2CCCOC2=O)n1",
    "Assay Target": "ULK kinase",
    "pIC50": "7.00 to 8.00"
  },
  {
    "Smiles Data": "CN1CCN(c2ccc(Nc3ncc(Cl)c(NCCCN4CCOCCC4=O)n3)c(C3CC3)c2)CC1",
    "Assay Target": "ULK kinase",
    "pIC50": "6.52 to 7.00"
  },
  {
    "Smiles Data": "CCc1cc(N2CCCN(C)CC2)ccc1Nc1ncc(C(F)(F)F)c(NCCCN2CCOCCC2=O)n1",
    "Assay Target": "ULK kinase",
    "pIC50": "6.52 to 7.00"
  }
]
